target.or.test.system: human TLR8 (Homo sapiens, UniProt Q9NR97)
Sequence (Q9NR97 27-1041): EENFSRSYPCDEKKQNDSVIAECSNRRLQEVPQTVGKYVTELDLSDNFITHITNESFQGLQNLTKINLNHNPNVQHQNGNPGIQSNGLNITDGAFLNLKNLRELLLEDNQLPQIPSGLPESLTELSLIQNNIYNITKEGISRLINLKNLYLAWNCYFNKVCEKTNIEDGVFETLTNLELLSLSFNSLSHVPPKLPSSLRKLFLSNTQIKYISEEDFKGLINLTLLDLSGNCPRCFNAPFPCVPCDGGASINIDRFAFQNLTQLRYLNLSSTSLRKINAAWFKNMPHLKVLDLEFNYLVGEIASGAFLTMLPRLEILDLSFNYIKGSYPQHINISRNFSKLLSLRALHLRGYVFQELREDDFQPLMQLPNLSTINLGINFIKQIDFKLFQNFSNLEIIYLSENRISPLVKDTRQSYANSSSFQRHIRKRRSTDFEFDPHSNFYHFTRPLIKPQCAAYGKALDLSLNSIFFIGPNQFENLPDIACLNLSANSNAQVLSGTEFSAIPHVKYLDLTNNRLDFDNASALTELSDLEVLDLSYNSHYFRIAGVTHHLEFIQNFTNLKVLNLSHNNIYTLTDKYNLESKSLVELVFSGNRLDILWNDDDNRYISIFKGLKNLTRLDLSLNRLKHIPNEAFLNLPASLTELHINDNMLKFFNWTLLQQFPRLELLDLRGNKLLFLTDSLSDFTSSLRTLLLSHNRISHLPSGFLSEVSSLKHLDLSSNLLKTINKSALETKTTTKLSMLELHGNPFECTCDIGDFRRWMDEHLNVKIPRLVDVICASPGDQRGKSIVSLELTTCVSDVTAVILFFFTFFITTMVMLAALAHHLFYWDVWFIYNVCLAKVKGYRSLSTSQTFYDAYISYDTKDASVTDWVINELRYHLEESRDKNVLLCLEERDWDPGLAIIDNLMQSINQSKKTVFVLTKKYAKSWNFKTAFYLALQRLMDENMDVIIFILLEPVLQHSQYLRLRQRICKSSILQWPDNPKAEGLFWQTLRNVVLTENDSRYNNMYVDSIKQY
measurement.protocol: HEK293 NFKB reporter assay, human TLR8
measurement.context: HEK293 NFKB reporter cells expressing human TLR8; read-out: HEK293 hTLR8 EC50
Experimental: Each compound was synthesized, purified, and characterized by mass spectrometry and shown to have the mass indicated. Additional experimental procedures are found in the Examples. Activity against HEK293 NFKB reporter cells expressing human TLR7 or human TLR8 was measured according to Example 202. HEK293 reporter cells expressing human TLR7 or human TLR8 were purchased from Invivogen and vendor protocols were followed for cellular propagation and experimentation. […]
measured.endpoint: EC50 (µM)

CCCN(OCC)C(=O)C1=Cc2sc(CN3CC(CN)C3)cc2N=C(N)C1: 4.32
CCCN(CCC)C(=O)C1=Cc2sc(CNC(=O)CCNC(=O)OC(C)(C)C)cc2N=C(N)C1: 4.15
CCCN(CC#CCN)C(=O)C1=Cc2sccc2N=C(N)C1: 4.1
CCCN(OCC)C(=O)C1=Cc2sc(CN3CCCN(C(=O)OC(C)(C)C)CC3)cc2N=C(N)C1: 4.43

====

target.or.test.system: human TLR7 (Homo sapiens)
Sequence (Q9NYK1 27-1049): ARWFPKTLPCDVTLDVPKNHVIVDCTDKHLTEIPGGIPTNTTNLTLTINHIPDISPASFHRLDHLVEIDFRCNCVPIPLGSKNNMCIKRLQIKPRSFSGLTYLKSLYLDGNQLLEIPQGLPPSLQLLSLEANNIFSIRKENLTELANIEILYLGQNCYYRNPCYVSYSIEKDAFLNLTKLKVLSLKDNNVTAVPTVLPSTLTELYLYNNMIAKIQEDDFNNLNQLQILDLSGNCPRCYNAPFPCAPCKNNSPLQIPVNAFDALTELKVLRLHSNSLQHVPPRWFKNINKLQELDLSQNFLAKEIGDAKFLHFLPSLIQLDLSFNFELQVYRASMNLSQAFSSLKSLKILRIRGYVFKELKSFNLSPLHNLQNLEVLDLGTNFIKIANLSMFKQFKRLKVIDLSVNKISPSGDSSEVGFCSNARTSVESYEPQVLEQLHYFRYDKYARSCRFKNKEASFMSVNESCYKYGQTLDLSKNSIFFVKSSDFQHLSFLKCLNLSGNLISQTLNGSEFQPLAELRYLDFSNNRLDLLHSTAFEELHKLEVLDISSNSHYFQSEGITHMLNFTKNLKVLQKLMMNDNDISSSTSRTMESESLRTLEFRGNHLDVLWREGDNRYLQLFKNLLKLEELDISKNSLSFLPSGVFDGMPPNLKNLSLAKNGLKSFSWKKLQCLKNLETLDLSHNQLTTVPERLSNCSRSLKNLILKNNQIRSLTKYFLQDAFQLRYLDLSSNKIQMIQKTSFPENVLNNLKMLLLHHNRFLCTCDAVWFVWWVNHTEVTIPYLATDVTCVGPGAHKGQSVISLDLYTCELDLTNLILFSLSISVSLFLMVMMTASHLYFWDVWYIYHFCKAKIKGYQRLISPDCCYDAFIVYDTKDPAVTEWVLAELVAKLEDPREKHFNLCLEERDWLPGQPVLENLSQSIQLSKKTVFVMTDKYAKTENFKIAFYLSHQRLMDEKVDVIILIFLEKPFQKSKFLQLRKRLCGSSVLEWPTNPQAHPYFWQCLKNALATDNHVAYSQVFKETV
measurement.protocol: HEK293 NFKB reporter assay, human TLR7
measurement.context: HEK293 NFKB reporter cells expressing human TLR7; read-out: HEK293 hTLR7 EC50
pEC50: −log10 of the molar value.
measured.endpoint: pEC50

Reference set, count: 10
CCCN(CCc1ccc(OC)cc1)C(=O)C1=Cc2sc(CCCCCNC(=O)OC(C)(C)C)cc2N=C(N)C1 [TAZ-106]: 5.32
CCCN(OCC)C(=O)C1=Cc2sc(CC3CN(C(=O)OC(C)(C)C)C3)cc2N=C(N)C1 [TAZ-184]: 6.04
CCCN(C(=O)C1=Cc2sc(CCCCCNC(=O)OC(C)(C)C)cc2N=C(N)C1)C1CC1 [TAZ-123]: 5.33
CCCN(Cc1cnc(CN)cn1)C(=O)C1=Cc2sccc2N=C(N)C1 [TAZ-62]: 5.08
CCCN(OCC)C(=O)C1=Cc2sc(CN3CC4CCC(C3)N4)cc2N=C(N)C1 [TAZ-245]: 5.30
CCCN(OCC)C(=O)C1=Cc2sccc2N=C(N)C1 [TAZ-53]: 5.44
CCCN(CCCNC(=O)OC1CCC1)C(=O)C1=Cc2sc(CNC(=O)c3ccccc3)cc2N=C(N)C1 [TAZ-203]: 5.49
CCCN(OCC)C(=O)C1=Cc2sc(CN3CCNCC3)cc2N=C(N)C1 [TAZ-94]: 5.21
CCCN(OCC)C(=O)C1=Cc2sc(C#CC3CCN(C(=O)OC(C)(C)C)CC3)cc2N=C(N)C1 [TAZ-173]: 5.11
CCCN(OCC)C(=O)C1=Cc2sc(CCC3CCN(C(=O)OC(C)(C)C)CC3)cc2N=C(N)C1 [TAZ-175]: 5.38

(I) CCCN(OCC)C(=O)C1=Cc2sc(C#CC3CCNCC3)cc2N=C(N)C1 [TAZ-174]
(II) CCCN(CCCNC(=O)OC1CCC1)C(=O)C1=Cc2sc(CN3CCNCC3)cc2N=C(N)C1 [TAZ-169]
(III) CCCN(CCCNC(=O)OC1CCC1)C(=O)C1=Cc2sc(C#CC3CCNCC3)cc2N=C(N)C1 [TAZ-164]
(IV) CCCN(CCCNC(=O)C(C)(C)C)C(=O)C1=Cc2sc(CCCCCN)cc2N=C(N)C1 [TAZ-142]
(V) CCCN(OCCNC(=O)OC1CCC1)C(=O)C1=Cc2sc(CC3CNC3)cc2N=C(N)C1 [TAZ-238]
Query: Put the items in order so that reported pEC50 rises from first to last. Give your ranking as a list of the labels in the requested order.
Reply: I, II, IV, III, V

====

target.or.test.system: human TLR7 (Homo sapiens, UniProt Q9NYK1)
measurement.protocol: HEK293 NFKB reporter assay, human TLR7
measurement.context: HEK293 NFKB reporter cells expressing human TLR7; read-out: HEK293 hTLR7 EC50
pEC50: −log10 of the molar value.
measured.endpoint: pEC50

Worked set:
CCCN(Cc1ccc(CN)cc1C(F)(F)F)C(=O)C1=Cc2sccc2N=C(N)C1 [TAZ-52]: 5.57
CCCN(CCC)C(=O)C1=Cc2sc(CCCCNC(=O)OC(C)(C)C)cc2N=C(N)C1 [TAZ-36]: 5.07
NCc1ccc(CN(CCC(F)(F)F)C(=O)C2=Cc3sccc3N=C(N)C2)cc1 [TAZ-77]: 5.41
CCCN(CCC)C(=O)C1=Cc2sc(CCCCN)cc2N=C(N)C1 [TAZ-38]: 5.38
CCCN(OCC)C(=O)C1=Cc2sc(CCC3CNC3)cc2N=C(N)C1 [TAZ-195]: 5.18
CCCN(OCC)C(=O)C1=Cc2sc(C#CCCCNC(=O)OC(C)(C)C)cc2N=C(N)C1 [TAZ-72]: 5.50
CCCN(OCCNC(=O)CC(C)(C)C)C(=O)C1=Cc2sc(CCCCCNC(=O)OC(C)(C)C)cc2N=C(N)C1 [TAZ-150]: 5.70
CCCN(OCC)C(=O)C1=Cc2sc(CN3CC4(C3)CN(C(=O)OC(C)(C)C)C4)cc2N=C(N)C1 [TAZ-208]: 5.44
CCCN(CCCNC(=O)OC(C)(C)C)C(=O)C1=Cc2sc(CCCCCN)cc2N=C(N)C1 [TAZ-133]: 6.23
CCCN(CCC)C(=O)C1=Cc2sc(CN3CCNCC3)cc2N=C(N)C1 [TAZ-44]: 5.34

(A) CCCN(OCC)C(=O)C1=Cc2sc(CCC3CCNCC3)cc2N=C(N)C1 [TAZ-176]
(B) CCCN(CC1CC1)C(=O)C1=Cc2sc(CCCCCN)cc2N=C(N)C1 [TAZ-124]
Query: Which numeric pEC50 is bigger, that of A or that of B ? Label of pick, please.
Reply: A

(a) CCCN(Cc1ccc(CO)cc1)C(=O)C1=Cc2sccc2N=C(N)C1 [TAZ-96]
(b) CCCN(OCCNC(=O)CC(C)(C)C)C(=O)C1=Cc2sc(CCCCCN)cc2N=C(N)C1 [TAZ-149]
(c) CCCN(CCCNC(=O)OCc1ccccc1)C(=O)C1=Cc2sc(CCCCCNC(=O)OC(C)(C)C)cc2N=C(N)C1 [TAZ-162]
Query: Please list these molecules in decreasing order of pEC50. Please, when replying, give the labels in the order that was requested.
Reply: b, c, a
(b: 6.27, c: 5.91, a: 5.53)

(A) CCCN(Cc1ccc(CN)nc1)C(=O)C1=Cc2sccc2N=C(N)C1 [TAZ-63]
(B) CCCN(Cc1ccc(CN(C)C)cc1)C(=O)C1=Cc2sccc2N=C(N)C1 [TAZ-87]
Query: Please indicate which entry, A or B , has the lower recorded pEC50 value. Indicate your choice by writing its label.
Reply: A
(A: 5.38, B: 5.71)

(1) CCCN(CCCNC(=O)OC(C)(C)C)C(=O)C1=Cc2sccc2N=C(N)C1 [TAZ-8]
(2) CCCN(CCCNC(=O)NCC)C(=O)C1=Cc2sc(CCCCCNC(=O)OC(C)(C)C)cc2N=C(N)C1 [TAZ-170]
(3) CCCN(OCC)C(=O)C1=Cc2sc(CC3CCNC3)cc2N=C(N)C1 (stereo not drawn) [TAZ-236]
(4) CCCN(CCCNC(=O)OC1CCC1)C(=O)C1=Cc2sc(CN3CCN(c4ccc(C(=O)OC)cc4)CC3)cc2N=C(N)C1 [TAZ-180]
Query: Give the ascending ranking of the items by reported pEC50. Answer by listing the labels in the order asked for.
Reply: 4, 3, 1, 2
(4: 5.44, 3: 5.65, 1: 6.23, 2: 6.55)
